- Test system: CCRIS mutagenicity, Ames/micronucleus/aberration tests
- experimental-details: CCRIS mutagenicity studies
- protocol-conditions: Test System: AMES SALMONELLA TYPHIMURIUM; Strain/Indicator: TA100; Metabolic Activation: HAMSTER, LIVER, S-9, AROCLOR 1254 (10%); Method: PREINCUBATION
Activity calls are given as the source filed them. How the calls were made is not given here.
Classes used: Y (active), N (inactive)

INSERT INTO assay_data (molecule, system_under_test, class_name) VALUES
  ('O=C1NC(=O)c2cc([N+](=O)[O-])ccc21', 'CCRIS mutagenicity, Ames/micronucleus/aberration tests', 'N'),
  ('Nc1ccc(Cl)cc1Cl', 'CCRIS mutagenicity, Ames/micronucleus/aberration tests', 'N'),
  ('Nc1cc(Cl)ccc1O', 'CCRIS mutagenicity, Ames/micronucleus/aberration tests', 'N'),
  ('N#CCc1ccccc1[N+](=O)[O-]', 'CCRIS mutagenicity, Ames/micronucleus/aberration tests', 'Y'),
  ('CC(CCN(C)C)N(C)C (configuration not stated)', 'CCRIS mutagenicity, Ames/micronucleus/aberration tests', 'N'),
  ('Clc1c(Cl)c(Br)c2c(c1Cl)-c1nc-2nc2[n-]c(nc3nc(nc4[n-]c(n1)c1c(Cl)c(Br)c(Cl)c(Br)c41)-c1c(Cl)c(Cl)c(Br)c(Cl)c1-3)c1c(Br)c(Cl)c(Br)c(Cl)c21.[Cu+2]', 'CCRIS mutagenicity, Ames/micronucleus/aberration tests', 'N'),
  ('CCCCOC(=O)c1ccccc1C(=O)OCCCC', 'CCRIS mutagenicity, Ames/micronucleus/aberration tests', 'N'),
  ('CCCCOC(=O)c1ccccc1C(=O)OC1CCCCC1', 'CCRIS mutagenicity, Ames/micronucleus/aberration tests', 'N'),
  ('COc1cc(-c2ccc(N/N=C3/C(=O)c4c(N)cc(S(=O)(=O)O)cc4C=C3S(=O)(=O)O)c(OC)c2)ccc1N/N=C1/C(=O)c2c(N)cc(S(=O)(=O)O)cc2C=C1S(=O)(=O)O', 'CCRIS mutagenicity, Ames/micronucleus/aberration tests', 'N'),
  ('CCCCCc1cc(O)cc(O)c1', 'CCRIS mutagenicity, Ames/micronucleus/aberration tests', 'N'),
  ('Cc1cc(-c2ccc(N=Nc3cc(S(=O)(=O)O)c4ccccc4c3N)c(C)c2)ccc1N=Nc1cc(S(=O)(=O)O)c2ccccc2c1N', 'CCRIS mutagenicity, Ames/micronucleus/aberration tests', 'N'),
  ('Cc1ccc(N)c(C)c1', 'CCRIS mutagenicity, Ames/micronucleus/aberration tests', 'Y'),
  ('ClC(Cl)(Cl)Cl', 'CCRIS mutagenicity, Ames/micronucleus/aberration tests', 'N'),
  ('CCCCOP(=O)(OCCCC)Oc1ccccc1', 'CCRIS mutagenicity, Ames/micronucleus/aberration tests', 'N'),
  ('CCOC(=O)OCC', 'CCRIS mutagenicity, Ames/micronucleus/aberration tests', 'N'),
  ('O=c1ccc(=O)[nH][nH]1', 'CCRIS mutagenicity, Ames/micronucleus/aberration tests', 'N'),
  ('CC(O)C#N (configuration not stated)', 'CCRIS mutagenicity, Ames/micronucleus/aberration tests', 'N'),
  ('C=CC(=O)O', 'CCRIS mutagenicity, Ames/micronucleus/aberration tests', 'N'),
  ('O=C1OC(=O)c2ccccc21', 'CCRIS mutagenicity, Ames/micronucleus/aberration tests', 'N'),
  ('C=CC1CC=CCC1 (configuration not stated)', 'CCRIS mutagenicity, Ames/micronucleus/aberration tests', 'N'),
  ('Nc1ccccc1N', 'CCRIS mutagenicity, Ames/micronucleus/aberration tests', 'Y'),
  ('C=CC(=O)OCC(C)C', 'CCRIS mutagenicity, Ames/micronucleus/aberration tests', 'N'),
  ('Cc1ccc(N)cc1C', 'CCRIS mutagenicity, Ames/micronucleus/aberration tests', 'Y'),
  ('Oc1cccc(O)c1', 'CCRIS mutagenicity, Ames/micronucleus/aberration tests', 'N'),
  ('O=C(O)C1=NN(c2ccc(S(=O)(=O)O)cc2)C(=O)C1N=Nc1ccc(S(=O)(=O)O)cc1.[Al] (configuration not stated)', 'CCRIS mutagenicity, Ames/micronucleus/aberration tests', 'N'),
  ('Cc1c(Br)c(Br)c(Br)c(Br)c1Br', 'CCRIS mutagenicity, Ames/micronucleus/aberration tests', 'N'),
  ('Nc1ccc([N+](=O)[O-])cc1O', 'CCRIS mutagenicity, Ames/micronucleus/aberration tests', 'N'),
  ('Cc1cccc(Br)c1', 'CCRIS mutagenicity, Ames/micronucleus/aberration tests', 'N'),
  ('O=C(O)c1ccc([N+](=O)[O-])cc1', 'CCRIS mutagenicity, Ames/micronucleus/aberration tests', 'Y'),
  ('Clc1nc(Cl)nc(Nc2ccccc2Cl)n1', 'CCRIS mutagenicity, Ames/micronucleus/aberration tests', 'N'),
  ('CN(C)c1cccc(O)c1', 'CCRIS mutagenicity, Ames/micronucleus/aberration tests', 'Y'),
  ('CCOc1ccc(N=Nc2ccc(-c3ccc(N=Nc4c(O)ccc5cc(S(=O)(=O)O)cc(S(=O)(=O)O)c45)c(C)c3)cc2C)cc1', 'CCRIS mutagenicity, Ames/micronucleus/aberration tests', 'N'),
  ('C=CCOC(=O)C=C', 'CCRIS mutagenicity, Ames/micronucleus/aberration tests', 'N'),
  ('CC(C)CC(=O)CC(C)C', 'CCRIS mutagenicity, Ames/micronucleus/aberration tests', 'N'),
  ('c1ccc(OP(Oc2ccccc2)Oc2ccccc2)cc1', 'CCRIS mutagenicity, Ames/micronucleus/aberration tests', 'N'),
  ('CC(=O)Nc1ccc(N)cc1', 'CCRIS mutagenicity, Ames/micronucleus/aberration tests', 'N'),
  ('CC(C)Nc1ccc(Nc2ccccc2)cc1', 'CCRIS mutagenicity, Ames/micronucleus/aberration tests', 'N');
